For each entry below, report its cAMP levels, Percent of Pyr-Apelin-13 Control Activity (10 µM peptide, 10 µM forskolin) value.
Target: T1, Apelin Receptor (APJ) stably overexpressed in CHO-K1 AGTRL1 Gi cells (human, UniProt P35414 1-380)
T1 sequence (looked up): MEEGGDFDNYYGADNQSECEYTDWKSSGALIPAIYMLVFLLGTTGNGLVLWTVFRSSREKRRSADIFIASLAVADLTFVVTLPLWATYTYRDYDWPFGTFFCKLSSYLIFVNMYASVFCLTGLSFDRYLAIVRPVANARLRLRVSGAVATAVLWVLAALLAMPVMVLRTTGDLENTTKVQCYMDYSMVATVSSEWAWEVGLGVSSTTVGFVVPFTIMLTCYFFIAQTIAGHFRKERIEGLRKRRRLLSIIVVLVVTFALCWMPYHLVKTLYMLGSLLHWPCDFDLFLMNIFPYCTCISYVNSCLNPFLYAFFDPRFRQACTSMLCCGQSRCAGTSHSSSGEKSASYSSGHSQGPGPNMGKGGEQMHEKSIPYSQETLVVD
Experiment: cell-based or functional assay
Non-standard residues stand in square brackets, D forms with d. No end group written: not given here.

binder: RRMAYQCLEG[dA] [SEQ ID NO 27]
result: 9 % of Pyr-Apelin-13 control

binder: RRMVFQCLCG[dA] (cysteine pairing not given here) [SEQ ID NO 19]
result: 27 % of Pyr-Apelin-13 control

binder: RRMMGMVFQCLEG[dA] [SEQ ID NO 14]
result: 39 % of Pyr-Apelin-13 control

binder: RREMVYQCLCG[dA] (cysteine pairing not given here) [SEQ ID NO 25]
result: 3 % of Pyr-Apelin-13 control

binder: RRMVYQCLCG[dA] (cysteine pairing not given here) [SEQ ID NO 22]
result: 62 % of Pyr-Apelin-13 control

binder: MMGMVFQ [SEQ ID NO 46]
result: 11 % of Pyr-Apelin-13 control

Alright, here's another binder for you.
Value of cAMP levels, Percent of Pyr-Apelin-13 Control Activity (10 µM peptide, 10 µM forskolin) reported for the binder Ac-RRMMGMVFQSLCG[dA] [SEQ ID NO 61] is 1 % of Pyr-Apelin-13 control
